- Tested on: Bacillus subtilis
- ASSAY_COMMENT: Antibacterial activity against Bacillus subtilis by serial dilution method
- Type: functional
This section presents compounds with their documented MIC values.
REPORTED_METRIC: MIC (µg/mL)

| SMILES_REPRESENTATION | REPORTED_METRIC | RESULT_MODIFIER | RESULT_VALUE |
| --- | --- | --- | --- |
| O=[N+]([O-])c1ccc(-c2nn3c(-c4cccc(-c5nnc6sc(-c7ccc([N+](=O)[O-])cc7)nn56)n4)nnc3s2)cc1 | MIC | = | 128 |
| COc1ccc(-c2nn3c(-c4cccc(-c5nnc6sc(-c7ccc(OC)cc7)nn56)n4)nnc3s2)cc1 | MIC | = | 64 |
| O=[N+]([O-])c1cccc(-c2nn3c(-c4cccc(-c5nnc6sc(-c7cccc([N+](=O)[O-])c7)nn56)n4)nnc3s2)c1 | MIC | = | 128 |
| c1cc(-c2nnc3sc(-c4ccco4)nn23)nc(-c2nnc3sc(-c4ccco4)nn23)c1 | MIC | = | 128 |
| c1cc(-c2nnc3sc(-c4ccncc4)nn23)nc(-c2nnc3sc(-c4ccncc4)nn23)c1 | MIC | > | 128 |
| Ic1cccc(-c2nn3c(-c4cccc(-c5nnc6sc(-c7cccc(I)c7)nn56)n4)nnc3s2)c1 | MIC | = | 64 |
| Cc1ccc(-c2nn3c(-c4cccc(-c5nnc6sc(-c7ccc(C)cc7)nn56)n4)nnc3s2)cc1 | MIC | > | 128 |
| Clc1ccc(-c2nn3c(-c4cccc(-c5nnc6sc(-c7ccc(Cl)cc7)nn56)n4)nnc3s2)cc1 | MIC | = | 64 |
| c1cncc(-c2nn3c(-c4cccc(-c5nnc6sc(-c7cccnc7)nn56)n4)nnc3s2)c1 | MIC | = | 128 |
